- target.desc: T1, human IL-1α (human, UniProt P01583 113-271)
- T1 construct: also called IL-1alpha; hIL-1α
- T1 sequence (looked up): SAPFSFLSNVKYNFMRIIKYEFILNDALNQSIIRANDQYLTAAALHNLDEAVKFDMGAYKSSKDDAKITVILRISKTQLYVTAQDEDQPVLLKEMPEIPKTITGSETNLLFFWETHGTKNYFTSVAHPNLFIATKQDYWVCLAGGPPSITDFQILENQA
- measurement.protocol: Table 62 IC50; RBA presumed
quantity.name: IC50

Query: Name the recorded IC50 for ABT1-95-154 (other, VK dAb) VL: DIQMTQSPSSLSASVGDRVTITCRASQPIVRNLRWYQQKPGKAPKLLISSSSYLEPGVPSRFSGSGSGTDFTLTISSLQPEDFATYHCQQGYRWPVTFGQGTKVEIKR .
Response: > 10 nM

Query: Name the recorded IC50 for ABT1-95-28 (other, VK dAb) VL: DIQMTQSPSSLSASVGDRVTITCRASQPIVRNLRWYQQKPGKAPKLLIYSSSYLEPGVPSRFSGSGSGTDFTLTISSLQPEDFATYYCQQGYGWPVTFGQGTKVEIKR .
Response: > 0.5 nM

Query: Name the recorded IC50 for ABT1-123 (other, VK dAb) VL: DIQMTQSPSSLSASVGDRVTITCRASQSIWTELKWYQQKPGKAPKLLIYGASLLQSGVPSRFSGSGSGTDFTLTISSLQPEDFATYYCQQFAYHPHTFGQGTKVEIKR .
Response: > 500 nM

Query: Name the recorded IC50 for ABT1-168 (other, VK dAb) VL: DIQMTQSPSSLSASVGDRVTITCRASQSISSYLNWYQQKPGKAPKLLIGGLSGLQSGVPSRFSGSGSGTDFTLTISSLQPEDFATYYCLQWFSEPATFGQGTKVEIKR .
Response: > 1000 nM

Query: Name the recorded IC50 for ABT1-145 (other, VK dAb) VL: DIQMTQSPSSLSASVGDRVTITCRASQDIDDGLAWYQQKPGKAPKLLIYRTSRLQSGVPSRFSGSGSGTDFTLTISSLQPEDFATYYCQPTWLPPCTFGQGTKVEIKR .
Response: > 500 nM
